# Target or system: T1, J1 DSL-EGF3 soluble recombinant protein (human Jagged 1 amino acids 185-335) (human, UniProt P78504 185-335)
# T1 construct: biotinylated in the CD46 ELISA; also called J1-DE3; DSL+EGF1-3
# T1 sequence (P78504 185-335, form in doubt): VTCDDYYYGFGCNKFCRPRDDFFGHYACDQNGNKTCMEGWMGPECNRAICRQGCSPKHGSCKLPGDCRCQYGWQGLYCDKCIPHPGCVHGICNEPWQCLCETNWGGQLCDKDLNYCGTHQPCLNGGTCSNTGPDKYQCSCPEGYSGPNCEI
# Method description: affinity to the immunogen J1-DE3; method not stated
Endpoint name: Kd (nM)
Your answer is read as nM, so omit the unit and give the number.

// query Kd value for entry J1-183D variant 10 (antibody, human IgG1, V domains shown, human IgG1; also called J1-183DV10; V10) VH: QVQLVQSGAELKKPGASVKVSCKVSGYAFTDYAIHWIRQAPGQGLEWMGIINTYYGDSKYAQKFQGRVTMTVDTSTSTAYMELSSLRSEDTAVYYCARGYDGFAYWGQGTLVTVSS VL: DIQMTQSPSSLSASVGDRVTITCRTSENIYSYLTWYQQKPGKAPKLLIYNAKILDSGVPSRFSGSGSGTDFTLTISSLQPEDFATYYCQHHYDIPWTFGGGTKLEIKR
1.77

// query Kd value for entry J1-183D variant 6 (antibody, human IgG1, V domains shown, human IgG1; also called J1-183DV6; V6) VH: QVQLVQSGAELKKPGASVKVSCKVSGYAFTDYAIHWIRQAPGQGLEWMGIINTYYGDSKYAQKFQGRVTMTVDTSTSTAYMELSSLRSEDTAVYYCARGYDGFAYWGQGTLVTVSS VL: DIQMTQSPSSLSASVGDRVTITCRTSENIYSYLTWYQQKPGKAPKLLIYNAKTLASGVPSRFSGSGSGTDFTLTISSLQPEDFATYYCQHHYDIPWTFGGGTKLEIKR
1.39

// query Kd value for entry J1-65D variant 6 (antibody, human IgG1, V domains shown, human IgG1; also called J1-65DV6; V6) VH: QVQLVQSGAELKKPGSSVKVSCKASGYTFTDYEMHWVRQAPGQGLEWMGAIQPGGGGTAYAQKFKGRVTLTADKSTSTAYMELSSLRSEDTAVYYCTRRGYDDYPFAYWGQGTLVTVSS VL: DIQMTQSPSSLSASVGDRVTITCRASGNIHNYLAWYQQKPGKAPKLLIYNAKTLADAVPSRFSGSGSGTDYTLTISSLQPEDFATYYCQHFWSAPWTFGGGTKLEIKR
0.223

// query Kd value for entry J1-65D variant 16 (antibody, human IgG1, V domains shown, human IgG1; also called J1-65DV16; V16) VH: QVQLVQSGAEVKKPGSSVKVSCKASGYTFTDYEMHWVRQAPGQGLEWMGAIQPGGGGTAYAQKFQGRVTITADKSTSTAYMELSSLRSEDTAVYYCTRRGYDDYPFAYWGQGTLVTVSS VL: DIQMTQSPSSLSASVGDRVTITCRASQGIHNYLAWYQQKPGKAPKLLIYNAKTLADAVPSRFSGSGSGTDYTLTISSLQPEDFATYYCQQFWSAPWTFGQGTKLEIK
52.1

// query Kd value for entry J1-183D variant 1 (antibody, human IgG1, V domains shown, human IgG1; also called J1-183DV1; V1) VH: QVQLVQSGAELKKPGASVKVSCKVSGYAFTDYAIHWIRQAPGQGLEWMGIINTYYGDSKYNQKFKDRVTMTVDKSTSTAYMELSSLRSEDTAVYYCARGYDGFAYWGQGTLVTVSS VL: DIQMTQSPSSLSASVGDRVTITCRTSENIYSYLTWYQQKPGKAPKLLVYNAKILAAGVPSRFSGSGSGTDFTLTISSLQPEDFATYYCQHHYDIPWTFGGGTKLEIKR
0.77

// query Kd value for entry J1-183D variant 9 (antibody, human IgG1, V domains shown, human IgG1; also called J1-183DV9; V9) VH: QVQLVQSGAELKKPGASVKVSCKVSGYAFTDYAIHWIRQAPGQGLEWMGIINTYYGDSKYNQKFKDRVTMTVDKSTSTAYMELSSLRSEDTAVYYCARGYDGFAYWGQGTLVTVSS VL: DIQMTQSPSSLSASVGDRVTITCRTSENIYSYLTWYQQKPGKAPKLLIYNAKILDSGVPSRFSGSGSGTDFTLTISSLQPEDFATYYCQHHYDIPWTFGGGTKLEIKR
0.68

// query Kd value for entry J1-183D variant 2 (antibody, human IgG1, V domains shown, human IgG1; also called J1-183DV2; V2) VH: QVQLVQSGAELKKPGASVKVSCKVSGYAFTDYAIHWIRQAPGQGLEWMGIINTYYGDSKYAQKFQGRVTMTVDTSTSTAYMELSSLRSEDTAVYYCARGYDGFAYWGQGTLVTVSS VL: DIQMTQSPSSLSASVGDRVTITCRTSENIYSYLTWYQQKPGKAPKLLVYNAKILAAGVPSRFSGSGSGTDFTLTISSLQPEDFATYYCQHHYDIPWTFGGGTKLEIKR
2.19

// query Kd value for entry J1-65D variant 4 (antibody, human IgG1, V domains shown, human IgG1; also called J1-65DV4; V4) VH: QVQLVQSGAEVKKPGSSVKVSCKASGYTFTDYEMHWVRQAPGQGLEWMGAIQPGGGGTAYAQKFQGRVTITADKSTSTAYMELSSLRSEDTAVYYCTRRGYDDYPFAYWGQGTLVTVSS VL: DIQMTQSPSSLSASVGDRVTITCRASGNIHNYLAWYQQKPGKAPKLLIYNAKTLADDVPSRFSGSGSGTDYTLTISSLQPEDFATYYCQHFWSAPWTFGGGTKLEIKR
0.0949

// query Kd value for entry J1-65D variant 3 (antibody, human IgG1, V domains shown, human IgG1; also called J1-65DV3; V3) VH: QVQLVQSGAEVKKPGSSVKVSCKASGYTFTDYEMHWVRQAPGQGLEWMGAIQPGGGGTAYAQKFQGRVTLTADKSTSTAYMELSSLRSEDTAVYYCTRRGYDDYPFAYWGQGTLVTVSS VL: DIQMTQSPSSLSASVGDRVTITCRASGNIHNYLAWYQQKPGKAPKLLIYNAKTLADDVPSRFSGSGSGTDYTLTISSLQPEDFATYYCQHFWSAPWTFGGGTKLEIKR
0.158

// query Kd value for entry J1-65D variant 8 (antibody, human IgG1, V domains shown, human IgG1; also called J1-65DV8; V8) VH: QVQLVQSGAEVKKPGSSVKVSCKASGYTFTDYEMHWVRQAPGQGLEWMGAIQPGGGGTAYAQKFQGRVTITADKSTSTAYMELSSLRSEDTAVYYCTRRGYDDYPFAYWGQGTLVTVSS VL: DIQMTQSPSSLSASVGDRVTITCRASGNIHNYLAWYQQKPGKAPKLLIYNAKTLADAVPSRFSGSGSGTDYTLTISSLQPEDFATYYCQHFWSAPWTFGGGTKLEIKR
0.0717
